# targetDesc: rat brain farnesyl:protein transferase (rat, UniProt Q04631 2-377; Q02293 1-437)
# procedureSummary: farnesyltransferase activity inhibition; FIG. 10C
measurementName: pKi
Keep in mind that pKi stands for -log10 of concentration in molar terms.

Ask: Which pKi reading was recorded for the binder CVLM ?
Reply: 6.70

Ask: Queued: CLIM
Reply: 7.10

Ask: Note, next up: CVIL [CVIL (COOH-terminal tetrapeptide of rap2b)]
Reply: 4.98
